Tested on: K4 kissing-loop RNA reporter;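 also: bound reporter read as fluorescence of individual clusters on recovered sequencing chips by microscopy, with normalized cluster intensities fitted with a binding model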
Assay protocol: apparent KD of K4 kissing-loop reporter; higher = weaker reporter binding
Test settings: Eterna round: R107; input ligand: none
Experimental readout: apparent KD of K4 kissing-loop reporter (nM)
Answers are plain numbers, in nM.

In the examples that follow, each entry is paired with its recorded apparent KD of K4 kissing-loop reporter.
Sequence string	apparent KD of K4 kissing-loop reporter, nM
GCUAGGCAUGCAGGAUAUCGUGGAGUGAUGUUCCGUUGGCUGCUAGCGGAAAACGCUAGCAGCCUACGAGAAGGGCAUGCCUAGC	425
AAAAUAAAUAGCAGUCACGGAGUGAUGUUCCGAGGACCGGUACGGCCGCCACUCGACCAGACAAAGUCUGGAUGGCGAGACUGCA [#SwitchBubble 19 #K4Early]	342
UCGAAAUGCGUCUCCUAGUUUCUCCGGGAAGGAGCGUGGAUAACCGCAGGUAGGUCGCCCGGGAGCCGGACCAGUGAUGUUGGUC [Exclusion Arginine A Gf 30]	197

Batch lookup, apparent KD of K4 kissing-loop reporter per entry.
1. GCGCGCGGCGGAGGAUAUAGCAGGUGAUCCGAGAAAGUGAGUGAUGUUUACGGAGAUGAUGAUAUGUUAGAAGGCCGCCGCGCGC [abcdefghijklmnopqrstuv]
2. UCCUGCAAUCUGCCACGAAAGUGGAUUGAUACCAGAGUCGAAAGACUCCCUUGGCAGCGAGUGAUGUUCGUUGCAGGUAAAUAAA [MatMod 7 - Jieux - Exclusion - Theophylline A]
3. UCUCGGGCCAGUGAUGUUGGCGGCAAGUGGCGAGGACCGGUACGGCCGCCACUCGGCGCAGCAGCGGAGUGAUGUUUCGUGAGUA [Same State Tryptophan A GF 16]
4. UGUACUCUGAAAGGAUAUGUGAGCCCUUUUUGUUAGUGAUGUUGACACGGAAACACCAUCAGACUUACAGAAGGUUCGUUGGGUA [theeternabot_sameState_KL_FMN_B_17]
5. ACCAUCAAAGAUGGCCAGGACUCAACUGAUACCAGAGUGGAGACACUCCCUUGGCAGCAGGUGAGUGAUGUUCACGAGUCCUGGA [Omel KL Theo A SS B v9]
6. GGACGACAGGCGGCCGCCACUCACAGCAGCCAGCGAGUGAUGUUCGUAGCGGAGUGAUGUUCCGAGAGGACCGGGUCUGCAGUCC [Same State Tryptophan B GF 17]
7. GAUGAUCGCGCGGCCGCCACUGGUCAGUGAUGUUGACAUUAAUGCGCCGAGUAGUAACGGCGCAGCAGGACCGGGCGCGAUGUAG [#12 K4 Tryptophan B Same State]
8. UAAUUUAUUUCUUUUAUAUAAUAAUCAGAUACCAGUGAUUAAUGUCACCCUUGGCAGCUGUAUAGAGUGAUGUUCUAAUGCUUAA [JR_SSTheophyA_Sub022]

Solution:
[437, 175, 1230, 241, 1140, 224, 145, 142]

Batch lookup, apparent KD of K4 kissing-loop reporter per entry.
1. UAAGUCUUAUCGGCCGCCACUCAUUACACGAAGUGAUGUUUCGGGUUUUAGACAAAUAAUUUUUGGAGGACCGGGAUACGAGAAA [theeternabot_sameState_KL_Trp_B_49]
2. UAGUCAUACAGAGGAUAUCGUAUGAGUGAUGUUCAUAUGCGUACAUCAACUUGAUGUACACCUAGACGAGAAGGCUGUAUGACUA [FMB B SS t6a]
3. CCCAAAAUAUGCAGUGAUGUUGCAACCGAUACCAGUAUCGAAAGAUACCCUUGGCAGCGGAAAACCGCAACGUAAUUUAAAAGGG [Ex Theophylline A K4 16]
4. AGUGAUGUUGUGUUAUGUUAGUGAAGUGAUCGAGGACCGGUACGGCCGCCACUCGAGUGAUGAGUGAGUGAUGUUUGUUUAGGGA [popmullin]

Solution:
1. 139
2. 252
3. 147
4. 1140

Batch lookup, apparent KD of K4 kissing-loop reporter per entry.
1. GCCGUACGCAUGGAUACCAGUCUUAGAGUGAUGUUCUAAACGAUUGCGCCUGGAUCAAUGGACCCUUGGCAGCCAUGCGUACGGC
2. AUUUAAUUAACUGAUACCAGACUUUUUGUUUUGUUUAUUACUAGUGAUGUUAGUGUUUCUGUCCCUUGGCAGCAGUAUCUACUUA [JR_ExcTheophyB_Sub015]

Solution:
1. 129
2. 131

Batch lookup, apparent KD of K4 kissing-loop reporter per entry.
1. CUUCUCCUUCCAAUCUCGGCCAACACGGGACGAGGACCGGUACGGCCGCCACUCGUGCAGUGAUGUUGCACGAUGGUGACGGAGA [Queronmaan]
2. UAUUCUGUUCGAAAGAACGGAAUUUCGGAAGGAGCGCGAGAAAUCGCAGGUAGGUCGCCGAAAUUAUUAGGUAGUGAUGUUACCU [Arginine A K4 6]
3. CCAACGUGAAAAGGAUAUCGCGAUGUGCACGACUAGUGAUGUUAGGAGAGGCUCGUUGAAUUGUACCGAGAAGGUUUUGAGUGGG [theeternabot_sameState_KL_FMN_B_16]
4. AUUUUAUUAACUGAUACCAGACUUAAUGAUUUGUAAAUUACUAGUGAUGUUAGUGAUUCUGUCCCUUGGCAGCAGUAUUUAUUUA [JR_ExcTheophyB_Sub013]
5. GGCCGGCCGGGAAGGAGCGGGAGUGAUGUUUUCGCAAAGAAAGAUAUAAAAGAAACGAAAUCCCAGGUAGGUCGCCCGGCCGGUU
6. AAUAAUAAUAAAUAUAGAUUGAUGAGGAAACGAGGACCGGUACGGCCGCCACUCGAGUGAUGUUCGAGAACCUCAUCAAUCAUAA [AK4.7 Exc Tryptophan A]

Solution:
[94.2, 120, 240, 79.2, 91.3, 166]
